System Name: Alpha-1B adrenergic receptor (Homo sapiens, UniProt P35368)
Sequence (P35368 whole entry): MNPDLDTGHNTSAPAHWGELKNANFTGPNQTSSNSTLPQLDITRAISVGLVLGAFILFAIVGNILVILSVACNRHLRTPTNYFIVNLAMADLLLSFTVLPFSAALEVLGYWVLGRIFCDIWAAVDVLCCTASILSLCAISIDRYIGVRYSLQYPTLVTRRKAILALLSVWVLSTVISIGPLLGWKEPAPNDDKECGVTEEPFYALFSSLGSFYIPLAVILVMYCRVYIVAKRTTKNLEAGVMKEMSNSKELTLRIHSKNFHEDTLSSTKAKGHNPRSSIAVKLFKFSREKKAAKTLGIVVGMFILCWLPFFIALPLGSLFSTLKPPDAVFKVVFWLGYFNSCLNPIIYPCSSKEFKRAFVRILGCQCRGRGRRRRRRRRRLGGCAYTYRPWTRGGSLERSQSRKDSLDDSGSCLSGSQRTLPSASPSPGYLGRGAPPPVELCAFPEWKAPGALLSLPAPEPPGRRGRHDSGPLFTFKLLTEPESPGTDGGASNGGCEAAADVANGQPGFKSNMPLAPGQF
Protocol Summary: Activation of human alpha-1B adrenergic receptors expressed in rat-1 fibroblasts
pEC50: −log10 of the molar value.
For each record, write down the corresponding pEC50.

Ask: Given the compound CCN(CC)C(=O)c1ccccc1OCc1c[nH]cn1 , what is its reported pEC50?
Reply: < 4.00

Ask: Repeat with c1ccc(N2CCCCC2)c(NCC2=NCCN2)c1
Reply: < 5.30

Ask: Repeat with CCCNC(=O)c1ccccc1NCc1c[nH]cn1
Reply: 6.50

Ask: Repeat with c1ccc(-c2cnco2)c(NCc2c[nH]cn2)c1
Reply: < 5.30

Ask: Repeat with c1ccc(-c2ccccc2OCc2c[nH]cn2)cc1
Reply: < 4.00

Ask: Repeat with CSc1ccccc1NCC1=NCCN1
Reply: 8.70

Ask: Repeat with CCN(CC)C(=O)c1ccccc1OCC1=NCCN1
Reply: < 4.00
